Answer each item with its documented viability at 28.5 h, 10 µM.
- Assay Procedure: in vitro
- Assay Context: human, hela cells, % viability
Numbers only, in %.

Here are 4 compounds together with their reported answers.
Q) Need viability at 28.5 h, 10 µM of Cc1ccc(C(=O)COc2ccc(/C=C(\C#N)c3nc(-c4ccc5c(c4)OCO5)cs3)cc2)cc1 , thanks.
A) 101

Q) Which measured viability at 28.5 h, 10 µM value corresponds to CN1CCN(CCCNC(=O)c2ccc(-c3ccoc3)nc2)CC1 ?
A) 93.3

Q) Recorded viability at 28.5 h, 10 µM for CCc1noc(C)c1C(=O)NCCN1CC(C)CC(C)C1 (stereo not drawn) , please?
A) 113

Q) Look at this compound and give its reported viability at 28.5 h, 10 µM. Cc1cc(C(=O)N(C)CC2(C)COC2)nc2ccccc12
A) 90.2

Each compound below has a reported value. Please supply its viability at 28.5 h, 10 µM.
1. Cc1cc(C)n(CC(=O)N2CCNCC2c2cccc(Cl)c2)n1 (stereo not drawn)
2. CN(C)c1nc(NC2CC2)nc(Oc2ccc(=O)n(-c3ccccc3)n2)n1
3. COc1cc(CNCc2ccco2)ccc1OCC(N)=O [CBK270204C]
4. CS(=O)(=O)N1CCC(C(=O)NCCN2CCOCC2)CC1
5. CC(=O)Nc1ccc(S(=O)(=O)N2CCN(c3ccc(C(F)(F)F)cc3[N+](=O)[O-])CC2)cc1

A)
1. 92.7
2. 93.9
3. 105
4. 100
5. 93.9

These data points were gathered from paper PMC12040169.
